# Tested Target: human glucagon-like peptide 1 receptor (human, UniProt P43220 24-463)
# Sequence (P43220 24-463): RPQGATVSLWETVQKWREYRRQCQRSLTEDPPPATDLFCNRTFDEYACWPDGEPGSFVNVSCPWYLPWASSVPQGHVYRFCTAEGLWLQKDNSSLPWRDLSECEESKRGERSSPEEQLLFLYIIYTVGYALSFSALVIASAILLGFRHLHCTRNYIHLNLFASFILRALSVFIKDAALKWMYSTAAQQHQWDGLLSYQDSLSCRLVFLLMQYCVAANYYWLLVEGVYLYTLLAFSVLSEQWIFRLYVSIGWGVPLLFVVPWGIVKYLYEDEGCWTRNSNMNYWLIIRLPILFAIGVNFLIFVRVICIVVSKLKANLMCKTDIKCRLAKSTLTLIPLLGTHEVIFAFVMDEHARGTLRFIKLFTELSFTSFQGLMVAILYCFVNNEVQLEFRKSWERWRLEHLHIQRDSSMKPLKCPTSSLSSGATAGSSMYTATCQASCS
# Assay: cell-based or functional assay
Reported Property: GLP-1R EC50 (nM), cAMP formation in HEK293 cells expressing human GLP-1-R

// known answers, use as guide
H-HSQGTFTSDYSKYLDSRAAHDFVEWLLRA-NH2 [L006-0169] : 0.99
H-HSQGTFTSDYSKYLDSKAAHDFVEWLMNT-NH2 [L006-0176] : 0.44
H-HSQGTFTSDYSKYLDKKAAHDFVEWLLRA-NH2 [L006-0239] : 0.98
H-HSQGTFTSDYSKYLDSKAAKDFVEWLLRA-NH2 [L006-0208] : 0.57

(a) H-HSQGTFTSDYSKYLDSKRAHDFVEWLLRA-NH2 [L006-0170]
(b) H-HSQGTFTSDYSKYLDSKAAHDFVQWLLRA-NH2 [L006-0172]
Compare a and b and name the one whose reported GLP-1R EC50 (nM), cAMP formation in HEK293 cells expressing human GLP-1-R is smaller. Indicate which entry you chose by stating its label.
b
(b: 0.21 nM, a: 0.5 nM)
